System: HepG2
METHOD SUMMARY: Cytotoxicity against human HepG2 cells after 72 hrs by MTT assay
Type: functional, cell-based
TEST CONDITIONS: HepG2, 72 h
pIC50: −log10 of the molar value.
pIC50 reference
MEASUREMENT TYPE: pIC50

• CCCNC(=O)c1cc(Cl)cc(C)c1NC(=O)C1CC(c2ccc(F)cc2)=NO1 (stereo unspecified) = < 4.00
• CNC(=O)c1cc(Cl)cc(C)c1NC(=O)C1CC(c2ccc(Cl)cc2)=NO1 (stereo unspecified) = < 4.00
• CCCNC(=O)c1cc(Cl)cc(C)c1NC(=O)C1CC(c2cc(OC)c(OC)c(OC)c2)=NO1 (stereo unspecified) = < 4.00
• CCN(CC)C(=O)c1cc(Cl)cc(C)c1NC(=O)C1CC(c2ccc(F)cc2)=NO1 (stereo unspecified) = < 4.00
• COc1cc(C2=NOC(c3nc4c(C)cc(Cl)cc4c(=O)o3)C2)cc(OC)c1OC (stereo unspecified) = < 4.00
• CNC(=O)c1cc(Cl)cc(C)c1NC(=O)C1CC(c2ccc(F)cc2)=NO1 (stereo unspecified) = < 4.00
